Just for reference, patent US20110028447A1 is where these values come from.

log10 of Ki overview
measured_on: UniProtKB P21554
Sequence (P21554 whole entry): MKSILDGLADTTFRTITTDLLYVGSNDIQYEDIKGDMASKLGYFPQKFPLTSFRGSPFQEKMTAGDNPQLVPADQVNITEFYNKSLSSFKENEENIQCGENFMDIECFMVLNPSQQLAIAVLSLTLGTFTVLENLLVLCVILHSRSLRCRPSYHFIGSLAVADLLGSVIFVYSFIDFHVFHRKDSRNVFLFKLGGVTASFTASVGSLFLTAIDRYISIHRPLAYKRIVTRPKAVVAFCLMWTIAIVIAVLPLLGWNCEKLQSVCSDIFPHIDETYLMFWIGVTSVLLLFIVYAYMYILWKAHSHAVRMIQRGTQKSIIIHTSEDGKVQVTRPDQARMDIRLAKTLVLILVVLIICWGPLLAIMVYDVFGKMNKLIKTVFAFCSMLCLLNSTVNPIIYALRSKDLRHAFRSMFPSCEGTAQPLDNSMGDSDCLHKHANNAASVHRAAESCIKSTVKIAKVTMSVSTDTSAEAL
test_method_notes: Human CB1 receptor binding, [3H] CP-55,940 displacement on HEK cell membranes
Design: expressed in transfected cells; host or cells: HEK cells, doxycycline-induced; membrane preparation
experimental_context: CB1 Ki
metric: log10 of Ki (log10 of the value in nM)

In [3]: df
Out[3]:
                                    compound  result_number
 0  CC(C)(C)[C@H](NC(=O)c1nn(Cc2ccc(C#N)cc2)c2c(F)cccc12)C(=O)NC(CO)CO           0.98
 1  CC(C)(C)[C@H](NC(=O)c1nn(Cc2ccc(C(F)(F)F)cc2)c2ccccc12)C(N)=O           1.09
 2  CC(C)(C)[C@H](NC(=O)c1nn(Cc2ccc(F)cc2)c2c(F)c(F)ccc12)C(=O)NC[C@@H](O)CO           0.95
 3  CC(C)(C)C(NC(=O)c1nn(Cc2ccc(F)cc2)c2c(F)cccc12)C(=O)NCC(N)=O (stereo not drawn)          -0.06
 4  CC(C)(C)[C@H](NC(=O)c1nn(Cc2ccc(F)cc2)c2ccccc12)C(=O)N1CCC[C@H]1CO          -0.11
 5  CC(C)(C)[C@H](NC(=O)c1nn(Cc2ccc(F)cc2)c2ccc(Cl)cc12)C(=O)NC1CC1           0.05
 6  CC(C)(C)[C@H](NC(=O)c1nn(Cc2ccc(C#N)cc2)c2cc(F)ccc12)C(=O)NCC(N)=O           1.85
 7  CC(C)(C)[C@H](NC(=O)c1nn(Cc2ccc(F)cc2)c2c(F)c(F)ccc12)C(=O)NCCS(N)(=O)=O           0.62
 8  CC(C)(C)C(NC(=O)c1nn(Cc2ccc(F)cc2)c2ccccc12)C(=O)NCC(O)CO (stereo not drawn) [Example 77]           0.73
 9  CC(C)(C)C(NC(=O)c1nn(Cc2ccc(F)cc2)c2c(Cl)cccc12)C(=O)NC1CC1 (stereo not drawn)          -0.47
10  CC(C)(C)[C@H](NC(=O)c1nn(Cc2ccc(F)cc2)c2ccc(Cl)cc12)C(=O)NCC1CC1           0.51
11  CC(C)(C)[C@H](NC(=O)c1nn(Cc2ccc(C#N)cc2)c2ccccc12)C(=O)NC1CCC1           1.95
12  CC(C)(C)C(NC(=O)c1nn(Cc2ccccc2)c2cc(Br)ccc12)C(N)=O (stereo not drawn)          -0.62
13  CC(C)(C)[C@H](NC(=O)c1nn(Cc2ccc(F)cc2)c2c(F)c(F)ccc12)C(=O)NCCS(C)(=O)=O           1.20
14  CC(C)(C)[C@H](NC(=O)c1nn(Cc2ccc(C#N)cc2)c2cc(F)ccc12)C(=O)NCCO           0.96
15  CC(C)(C)[C@H](NC(=O)c1nn(Cc2ccc(C#N)cc2)c2cc(F)ccc12)C(=O)NC[C@@H](O)CO           2.09
16  Cc1nnc(CNC(=O)[C@@H](NC(=O)c2nn(Cc3ccc(C#N)cc3)c3ccccc23)C(C)(C)C)o1           1.52
17  CC(C)(C)C(NC(=O)c1nn(Cc2ccccc2)c2ccccc12)C(=O)NCCNC(N)=O (stereo not drawn)           1.18
18  CC(C)(C)[C@H](NC(=O)c1nn(Cc2ccccc2)c2ccccc12)C(=O)NC[C@H](O)CO           1.36
19  CC(C)(C)[C@H](NC(=O)c1nn(Cc2ccc(F)cc2)c2c(F)c(F)ccc12)C(=O)NC[C@H](O)CO           0.48
20  CC(C)(C)C(NC(=O)c1nn(Cc2ccc(C#N)cc2F)c2ccccc12)C(=O)NCCNC(N)=O (stereo not drawn)           1.44
21  CC(C)(C)[C@H](NC(=O)c1nn(Cc2ccc(C#N)cc2)c2ccc(Cl)cc12)C(=O)NC1CC1           2.23
22  CC(C)(C)[C@H](NC(=O)c1nn(Cc2ccc(F)cc2)c2ccccc12)C(=O)N1CCS(=O)(=O)CC1           1.38
23  CC(C)(C)[C@H](NC(=O)c1nn(Cc2ccc(C#N)cc2)c2ccccc12)C(=O)N1CC(C(N)=O)C1           1.39
24  CC(C)(C)[C@H](NC(=O)c1nn(Cc2ccc(F)cc2)c2c(F)c(F)ccc12)C(=O)NCCO          -0.82
25  CC(C)[C@H](NC(=O)c1nn(Cc2ccc(F)cc2)c2ccccc12)C(N)=O          -0.05
26  Cc1cc(CNC(=O)c2nn(Cc3ccc(C#N)cc3)c3ccccc23)c(C)o1           0.66
